test system: Fibroblast; test: Multiplex assay against human fibroblast; assay type: toxicity, cell-based; details: 12 h, 1 µM, compound concentration 1 uM, replicate 2
QUANTITY KIND: Population Normal (%)
Numbers only, in %.

Prompt: Which Population Normal (%) value belongs to "CCNc1cc(N[C@H]2CC[C@H](O)CC2)nc(Nc2ccc3c(ccn3Cc3ccccc3)c2)n1" ?
Response: 49

Prompt: Which Population Normal (%) value belongs to "O=C1NC(=O)C(c2cnc3ccccn23)=C1c1cn2c3c(cc(F)cc13)CN(C(=O)N1CCCCC1)CC2" ?
Response: 87

Prompt: Which Population Normal (%) value belongs to "S=C(NCCCc1c[nH]cn1)NCCCN(Cc1ccc(Cl)c(Cl)c1)c1ccc(Br)cn1" ?
Response: 84

Prompt: Which Population Normal (%) value belongs to "COc1ccc(S(=O)(=O)N(CCO)c2ccccc2CN(C)C/C=C/c2ccc(Cl)cc2)cc1.O=P(O)(O)O" ?
Response: 66

Prompt: Which Population Normal (%) value belongs to "CNC(=O)c1ccc(Nc2nc(OC3CCCC3)c3c(-c4ccc5nc(C)oc5c4)c[nH]c3n2)c(OC)c1" ?
Response: 66

Dear colleague, could you please provide Population Normal (%) for the molecules listed below?
1. C=C1/C(=C\C=C2/CCC[C@]3(C)[C@@H]([C@H](C)/C=C/[C@H](C)C(C)C)CC[C@@H]23)C[C@@H](O)C[C@@H]1O
2. CCc1cccc(CC)c1NC(=O)c1nn(C)c2c1CCc1cnc(Nc3ccc(N4CCN(C)CC4)cc3OC)nc1-2
3. CCOc1cc(C(=O)N2CCC(N3CCN(C)CC3)CC2)ccc1Nc1ncc2c(n1)N(C1CCCC1)c1ccccc1C(=O)N2C

Response:
1: 98; 2: 74; 3: 89

---

system: Fibroblast; experiment: Multiplex assay against human fibroblast; type: toxicity, cell-based; details: 24 h, 10 µM, compound concentration 10 uM, replicate 1
Would you mind telling me the reported Population Mitochondria Different-Phenotype (%) of each entry?
Answers are plain numbers, in %.

Worked examples follow.
Prompt: Which Population Mitochondria Different-Phenotype (%) value belongs to COc1cc2ncnc(Nc3ccc(F)c(Cl)c3)c2cc1NC(=O)/C=C/CN1CCCCC1 [DACOMITINIB ANHYDROUS] ?
Response: 2

Prompt: Which Population Mitochondria Different-Phenotype (%) value belongs to "CCN1CCN(Cc2ccc(Nc3ncc(F)c(-c4cc(F)c5nc(C)n(C(C)C)c5c4)n3)nc2)CC1.CS(=O)(=O)O" ?
Response: 0

Prompt: Which Population Mitochondria Different-Phenotype (%) value belongs to "CCCS(=O)(=O)Nc1ccc(F)c(C(=O)c2c[nH]c3ncc(Cl)cc23)c1F" ?
Response: 4

Prompt: Which Population Mitochondria Different-Phenotype (%) value belongs to "COc1cccc2cc(-c3nc([C@H]4CC[C@H](C(=O)O)CC4)n4ncnc(N)c34)[nH]c12" ?
Response: 0

Prompt: Which Population Mitochondria Different-Phenotype (%) value belongs to "CCc1cccc(CC)c1NC(=O)c1nn(C)c2c1CCc1cnc(Nc3ccc(C(=O)NC4CCN(C)CC4)cc3OC(F)(F)F)nc1-2" ?
Response: 40

Dear colleague, could you please provide Population Mitochondria Different-Phenotype (%) for the compounds listed below?
1. COCC(=O)NC/C=C/c1ccc2ncnc(Nc3ccc(Oc4ccc(C)nc4)c(C)c3)c2c1
2. COc1ccc(-c2ccc3c(N4CCOCC4)nc(N4C[C@@H](C)O[C@@H](C)C4)nc3n2)cc1CO
3. NC(=O)c1cccc(-c2cc(Nc3ccc(OC(F)(F)F)cc3)ncn2)c1

Response:
1. 69
2. 0
3. 5

---

test system: U2OS; experiment: Multiplex assay against U2OS; type: toxicity, cell-based; details: human, 24 h, 10 µM, compound concentration 10 uM, replicate 1
QUANTITY KIND: Population Mitochondria Different-Phenotype (%)
One number for each entry, in %.

Dear colleague, could you please provide Population Mitochondria Different-Phenotype (%) for the compounds listed below?
1. Cc1cc(C)c(S(=O)(=O)N(Cc2ccc(-c3cccc(S(C)(=O)=O)c3)cc2)Cc2ccc(C(F)(F)F)o2)c(C)c1
2. Cn1nc(C(F)(F)F)cc1-c1cnc(N2CCc3cc(S(=O)(=O)Nc4c(F)cc(Cl)cc4F)cc(N4CCCC4=O)c32)nc1 [TP-020]
3. O=C1NC(=O)C(c2cnc3ccccn23)=C1c1cn2c3c(cc(F)cc13)CN(C(=O)N1CCCCC1)CC2 [LY-2090314]
4. CN1C2CCC1CC(OC(c1ccc(F)cc1)c1ccc(F)cc1)C2.Cl (centres undefined)

Response:
[32, 19, 98, 71]

---

system: U2OS; assay: Multiplex assay against U2OS; type: toxicity, cell-based; details: human, 24 h, 1 µM, compound concentration 1 uM, replicate 1
Criterion: Population Tubulin-Different-Phenotype (%) meeting or surpassing 10%. Met: Satisfied. Not met: Not satisfied.

Prompt: Is Population Tubulin-Different-Phenotype (%) for "Cc1cc(C)c(S(=O)(=O)N(Cc2ccc(-c3cccc(S(C)(=O)=O)c3)cc2)Cc2ccc(C(F)(F)F)o2)c(C)c1" at or above 10%?
Response: Not satisfied

Prompt: Is Population Tubulin-Different-Phenotype (%) for "S=C(NCCCc1c[nH]cn1)NCCCN(Cc1ccc(Cl)c(Cl)c1)c1ccc(Br)cn1" at or above 10%?
Response: Satisfied

Prompt: Is Population Tubulin-Different-Phenotype (%) for "CNc1cc(Oc2cc(C(=O)Nc3cc(N4CCN(C)CC4)cc(C(F)(F)F)c3)ccc2C)ncn1" at or above 10%?
Response: Satisfied

Prompt: Is Population Tubulin-Different-Phenotype (%) for "COc1ccc(S(=O)(=O)N(CCO)c2ccccc2CN(C)C/C=C/c2ccc(Cl)cc2)cc1.O=P(O)(O)O" at or above 10%?
Response: Satisfied

Prompt: Is Population Tubulin-Different-Phenotype (%) for "Cl.O=C(c1ccc(Nc2nccc(-c3cc4ccccc4s3)n2)cc1)N1CCC(N2CCCC2)CC1" at or above 10%?
Response: Satisfied

Prompt: Is Population Tubulin-Different-Phenotype (%) for "CNC(=O)c1ccc(Nc2nc(OC3CCCC3)c3c(-c4ccc5nc(C)oc5c4)c[nH]c3n2)c(OC)c1" at or above 10%?
Response: Satisfied

Prompt: Is Population Tubulin-Different-Phenotype (%) for "CCn1c(=O)c(-c2ccc(-c3cncs3)cc2Cl)cc2cnc(Nc3ccc(N4CCN(C)CC4)cc3)nc21" at or above 10%?
Response: Not satisfied

Prompt: Is Population Tubulin-Different-Phenotype (%) for "COC(=N)c1nc2ccc3ncnc(Nc4ccc(OC)cc4F)c3c2s1" at or above 10%?
Response: Satisfied

Next:
Prompt: Is Population Tubulin-Different-Phenotype (%) for CCOC(=O)c1c(C)[nH]c2ccc3c(c12)CN1CCc2cc(OC)ccc2C1O3 (centres undefined) at or above 10%?
Response: Satisfied

Prompt: Is Population Tubulin-Different-Phenotype (%) for "CCN1CCN(c2ccc(Nc3cc(N(C)C(=O)Nc4c(Cl)c(OC)cc(OC)c4Cl)ncn3)cc2)CC1" at or above 10%?
Response: Satisfied

Prompt: Is Population Tubulin-Different-Phenotype (%) for "CCc1cccc(CC)c1NC(=O)c1nn(C)c2c1CCc1cnc(Nc3ccc(N4CCN(C)CC4)cc3OC)nc1-2" at or above 10%?
Response: Satisfied

Prompt: Is Population Tubulin-Different-Phenotype (%) for "COc1ccc(-c2ccc3c(N4CCOCC4)nc(N4C[C@@H](C)O[C@@H](C)C4)nc3n2)cc1CO" at or above 10%?
Response: Satisfied

Prompt: Is Population Tubulin-Different-Phenotype (%) for "CCCn1c(=O)c2[nH]c(-c3cnn(Cc4cccc(C(F)(F)F)c4)c3)nc2n(CC)c1=O" at or above 10%?
Response: Not satisfied

---

Would you mind telling me the reported Population Normal (%) of each entry?
tested on: U2OS; assay: Multiplex assay against U2OS; type: toxicity, cell-based; details: human, 48 h, 10 µM, compound concentration 10 uM, replicate 2
Answer format: value, then unit.

Worked examples follow.
Prompt: Which Population Normal (%) value belongs to "Cl.O=C(c1ccc(Nc2nccc(-c3cc4ccccc4s3)n2)cc1)N1CCC(N2CCCC2)CC1" ?
Response: 55%

Prompt: Which Population Normal (%) value belongs to CN(C)C(=O)C(CCN1CCC(O)(c2ccc(Cl)cc2)CC1)(c1ccccc1)c1ccccc1.Cl [LOPERAMIDE HYDROCHLORIDE] ?
Response: 78%

Prompt: Which Population Normal (%) value belongs to "Cc1cn(-c2cc(NC(=O)c3ccc(C)c(Nc4nccc(-c5cccnc5)n4)c3)cc(C(F)(F)F)c2)cn1" ?
Response: 95%

Prompt: Which Population Normal (%) value belongs to "C=C1/C(=C\C=C2/CCC[C@]3(C)[C@@H]([C@H](C)/C=C/[C@H](C)C(C)C)CC[C@@H]23)C[C@@H](O)C[C@@H]1O" ?
Response: 96%

Okay, next one:
Prompt: Which Population Normal (%) value belongs to CN1CCC(=C2c3ccccc3CC(=O)c3sccc32)CC1.O=C(O)/C=C/C(=O)O [KETOTIFEN FUMARATE] ?
Response: 92%

Cited source: ChEMBL document CHEMBL4689842
